Each entry below carries its recorded activity change, negative = inhibition.
# Assay System: Guanidinoacetate N-methyltransferase (Homo sapiens) (UniProt Q14353)
# Experiment: Confirmatory Screen for Target Class Profiling of Small Molecule Inhibitors of Methyltransferases (AID 1745852); further: on the % scale 0 is the no-effect control and ±100 the full control effect
# Condition Label: MTase-Glo luminescence, SAH detection, recombinant enzyme; at 57.3 µM (top of the series) unless noted
Endpoint Label: activity change, negative = inhibition (%)

>>> endpoint_result("O=C1c2ccccc2C(=O)c2cc(S(=O)(=O)Nc3ccc(Br)cc3)ccc21")
-0.0818
>>> endpoint_result("Cc1cnc(C2CC2)n1C1CCCN(Cc2ccccc2)C1 (stereo unspecified)")
5.24
>>> endpoint_result("Cn1c(=O)n(C)c2cc(S(=O)(=O)N3CCN(C4CCCCC4)CC3)ccc21")
-0.234
>>> endpoint_result("CCCS(=O)(=O)N1CCCC(Cn2c(C)nc3cccnc32)C1 (stereo unspecified)")
2.96
>>> endpoint_result("O=C(Cn1c(=O)oc2cc(S(=O)(=O)N3CCCC3)ccc21)Nc1ccc(F)c(Cl)c1")
1.53
>>> endpoint_result("COc1ccc(-c2oc3ccc(C)cc3c(=O)c2O)cc1OC")
0
>>> endpoint_result("FC(F)(F)c1cccc(-c2nccn3c(C4CN(Cc5ccc6cn[nH]c6c5)C4)ncc23)c1")
4.1
>>> endpoint_result("CCNc1ncc(CN2CCN(c3ccncc3)CC2)cn1")
1.98
>>> endpoint_result("CCc1cccc(NC(=O)Cn2c(=O)oc3cc(S(=O)(=O)N4CCCCC4)ccc32)c1")
0
>>> endpoint_result("CCOC(=O)c1cccc(Nc2cc(C)nc3ccc(C)cc23)c1")
0
>>> endpoint_result("CC1(C(=O)NC2CCCCCC2)Cn2c(c(-n3cccc3)c3ccccc32)C(=O)N1CC1CCCO1 (stereo unspecified)")
0.126
>>> endpoint_result("O=C(CCCc1nnc2n3nc(-c4ccccc4)nc3c3ccccc3n12)NCCCN1CCCCC1")
0
>>> endpoint_result("CC(C)c1ccc(NC(=O)Cn2c(=O)oc3cc(S(=O)(=O)NCc4ccccc4)ccc32)cc1")
0
>>> endpoint_result("CC(C)CCn1c(=O)c2ccccc2n2c(CCC(=O)N3CCN(c4cccc(Cl)c4)CC3)nnc12")
1.8
>>> endpoint_result("COc1ccc2[nH]c(CNc3cc(C4CC(N)C4)nc(C)n3)cc2c1 (stereo unspecified)")
1.53
>>> endpoint_result("COc1ccc2c(c1)C(CN1CCN(c3ccc4oc(C(=O)O)cc4c3Cl)CC1)=CC(C)(C)CO2")
0.273
